Test system: Hs 746T (human gastric carcinoma cell line)
Experiment notes: 48 hr CTG viability assay, Hs 746T
Type: cell-based
Study conditions: Hs746T, 48 hr CTG, read-out: Hs 746T IC50
Assay endpoint: IC50

# example entries with known answers
Cc1ccc2cc1CNC(=O)[C@H](CCc1ccncc1)NC(=O)[C@@H](NC(=O)Cc1ccc(N)cc1C)CC(=O)N1CCCC(CCO2)C1 (stereo partly drawn) [Compound 654] :: < 100 nM
COc1ccccc1CCOCCC(=O)N[C@H]1CC(=O)N2CCCC(CCOc3ccc(C)c(c3)CNC(=O)[C@H](CCc3ccccc3)NC1=O)C2 (stereo partly drawn) [Compound 582] :: < 100 nM

Exam item: May I ask what IC50 has been recorded for Cc1ccc2cc1CNC(=O)[C@H](CCc1ccccc1)NC(=O)[C@@H](NC(=O)CCNCCC1CCCC1)CC(=O)N1CCCC(CCO2)C1 (stereo partly drawn) [Compound 700] ?
Marked response: < 100 nM

====

Test system: Hs 746T (human gastric carcinoma cell line)
Experiment notes: 48 hr CTG viability assay, Hs 746T
Type: cell-based
Study conditions: Hs746T, 48 hr CTG, read-out: Hs 746T IC50
pIC50: −log10 of the molar value.
Examples of molecules with documented pIC50 follow.

Cc1ccc2cc1CNC(=O)[C@H](CCc1ccccc1)NC(=O)[C@@H](NC(=O)CCN1CCC3(CCC3)C1)CC(=O)N1CCCC(CCO2)C1 (stereo partly drawn) :: > 7.00

Exam item: May I ask what pIC50 has been recorded for Cc1ccc2cc1CNC(=O)[C@H](CCc1ccccc1)NC(=O)[C@@H](NC(=O)C1CC3CCC(C1)N3C)CC(=O)N1CCCC(CCO2)C1 (stereo partly drawn) ?
Marked response: 6.30 to 7.00

Exam item: May I ask what pIC50 has been recorded for Cc1ccc2cc1CNC(=O)[C@H](CCc1ccccc1)NC(=O)[C@@H](NC(=O)CCN1CCC3(CCCC3)CC1)CC(=O)N1CCCC(CCO2)C1 (stereo partly drawn) ?
Marked response: > 7.00

Exam item: May I ask what pIC50 has been recorded for Cc1ccc2cc1CNC(=O)[C@H](CCc1ccccc1)NC(=O)[C@@H](NC(=O)CCOC1CCCC1)CC(=O)N1CCCC(CCO2)C1 (stereo partly drawn) ?
Marked response: > 7.00

Exam item: May I ask what pIC50 has been recorded for Cc1ccc2cc1CNC(=O)[C@H](CCc1ccccc1)NC(=O)[C@@H](NC(=O)C1CC3CCC(C1)N3)CC(=O)N1CCCC(CCO2)C1 (stereo partly drawn) ?
Marked response: 6.30 to 7.00

Exam item: May I ask what pIC50 has been recorded for Cc1ccc2cc1CNC(=O)[C@H](CCc1ccccc1)NC(=O)[C@@H](NS(=O)(=O)CC(F)(F)F)CC(=O)N1CCCC(CCO2)C1 (stereo partly drawn) ?
Marked response: > 7.00

Exam item: May I ask what pIC50 has been recorded for Cc1ccc2cc1CNC(=O)[C@H](CCc1ccccc1)NC(=O)[C@@H](NC(=O)CCNCc1cccc(N3CCOCC3)c1)CC(=O)N1CCCC(CCO2)C1 (stereo partly drawn) ?
Marked response: > 7.00

Exam item: May I ask what pIC50 has been recorded for Cc1ccc2cc1CNC(=O)[C@H](CCc1ccccc1)NC(=O)[C@@H](NC(=O)C13CC(F)(C1)C3)CC(=O)N1CCCC(CCO2)C1 (stereo partly drawn) ?
Marked response: > 7.00

Exam item: May I ask what pIC50 has been recorded for Cc1ccc2cc1CNC(=O)[C@H](CCc1ccccc1)NC(=O)[C@@H](NC(=O)N1Cc3ccc(N)cc3C1)CC(=O)N1CCCC(CCO2)C1 (stereo partly drawn) ?
Marked response: > 7.00

Exam item: May I ask what pIC50 has been recorded for Cc1ccc2cc1CNC(=O)[C@H](CCc1ccccc1)NC(=O)[C@@H](NC(=O)CCN1CC3(COC3)C1)CC(=O)N1CCCC(CCO2)C1 (stereo partly drawn) ?
Marked response: > 7.00

Exam item: May I ask what pIC50 has been recorded for COc1cccc(CCOCCC(=O)N[C@H]2CC(=O)N3CCCC(CCOc4ccc(C)c(c4)CNC(=O)[C@H](CCc4ccccc4)NC2=O)C3)c1 (stereo partly drawn) ?
Marked response: > 7.00

Exam item: May I ask what pIC50 has been recorded for Cc1ccc2cc1CNC(=O)[C@H](CCc1ccccc1)NC(=O)[C@@H](NC(=O)C13CC(O)(C1)C3)CC(=O)N1CCCC(CCO2)C1 (stereo partly drawn) ?
Marked response: > 7.00
